Please find below pKi data on UniProt P50406 compiled from the literature.
Sequence (P50406 whole entry): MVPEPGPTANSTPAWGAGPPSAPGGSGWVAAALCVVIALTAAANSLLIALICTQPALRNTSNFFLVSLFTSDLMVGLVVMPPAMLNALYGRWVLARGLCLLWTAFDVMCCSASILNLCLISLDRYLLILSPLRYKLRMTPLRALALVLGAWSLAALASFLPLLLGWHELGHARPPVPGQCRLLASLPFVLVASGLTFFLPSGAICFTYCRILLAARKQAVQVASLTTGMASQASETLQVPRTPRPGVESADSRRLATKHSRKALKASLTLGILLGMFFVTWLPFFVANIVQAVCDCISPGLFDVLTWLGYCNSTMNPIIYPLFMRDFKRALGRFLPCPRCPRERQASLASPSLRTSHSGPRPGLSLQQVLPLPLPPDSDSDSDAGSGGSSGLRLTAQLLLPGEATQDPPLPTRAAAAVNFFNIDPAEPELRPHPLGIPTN
Schema: pKi number; meaning minus log10 of the concentration expressed in molar units.

Example compounds with recorded pKi:
COMPOUND	OBSERVED RESULT
CN(C)CCn1ccc2cc(NS(=O)(=O)c3c(Cl)nc4sccn34)ccc21	8.70
CN(C)CCn1cc(S(=O)(=O)c2ccccc2)c2ncccc21	6.43
COc1cccc(Sc2ccc3c(c2)N2CCNCC2C3)c1 (stereo unspecified)	6.96

# lookup: O=C1c2ccccc2S(=O)(=O)N1CCCCCCN1CCN(c2cccc(Cl)c2)CC1 on UniProt P50406, pKi = 6.43

Param item: COc1ccc2c(c1)c1c(n2C(=O)c2ccc(N)cc2)CCCC1 ; param system: UniProt P50406; output pKi: 5.22

UniProt P50406 assay, compound CC1(c2ccc(Cl)cc2)C(=O)Nc2cc(Cl)cc(Cl)c2C1=O (stereo unspecified) , recorded pKi = 6.06

# value of pKi, UniProt P50406, item O=S(=O)(c1ccccc1F)c1cn(C2CCCNC2)c2ncccc12 (stereo unspecified) = 8.70

Simply: NCc1cn(S(=O)(=O)c2ccc(N)cc2)c2ccccc12 , UniProt P50406, pKi = 8.20

Response field pKi (UniProt P50406) for item COc1ccc2[nH]cc(C3CCN(CCCN4C(=O)CC(c5c[nH]c6ccccc56)C4=O)CC3)c2c1 (racemic) : 6.58
